# Measured Target: DAT (Homo sapiens)
# Sequence (Q01959 whole entry): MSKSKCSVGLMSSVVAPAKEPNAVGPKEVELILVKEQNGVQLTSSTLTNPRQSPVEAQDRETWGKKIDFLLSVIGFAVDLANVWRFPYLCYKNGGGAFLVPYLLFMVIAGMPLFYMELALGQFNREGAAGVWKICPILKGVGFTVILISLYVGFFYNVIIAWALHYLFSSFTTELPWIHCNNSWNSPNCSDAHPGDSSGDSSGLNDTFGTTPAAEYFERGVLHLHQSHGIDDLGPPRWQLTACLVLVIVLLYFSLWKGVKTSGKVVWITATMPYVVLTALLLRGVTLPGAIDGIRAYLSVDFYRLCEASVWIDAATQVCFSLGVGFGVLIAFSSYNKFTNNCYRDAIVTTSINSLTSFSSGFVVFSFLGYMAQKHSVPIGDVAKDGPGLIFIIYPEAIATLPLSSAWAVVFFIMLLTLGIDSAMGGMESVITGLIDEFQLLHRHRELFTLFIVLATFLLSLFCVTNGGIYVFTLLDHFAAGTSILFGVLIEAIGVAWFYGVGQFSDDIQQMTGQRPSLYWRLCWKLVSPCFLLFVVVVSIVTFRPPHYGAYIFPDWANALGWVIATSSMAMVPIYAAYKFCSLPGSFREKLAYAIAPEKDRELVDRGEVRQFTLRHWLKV
Binary call on Ki with cut-off 0.3 µM: strictly below means Satisfied, and equality or higher means Not satisfied.

{"Mol Smiles": "Cc1cc(C(N)=O)cc(-c2cc(F)c(CNC3Cc4ccccc4C3)c(F)c2)c1", "Class Label": "Not satisfied"}
{"Mol Smiles": "Cc1cc(-c2ccc(CNC3Cc4ccccc4C3)cc2)cc(-c2nc[nH]n2)c1", "Class Label": "Satisfied"}
{"Mol Smiles": "Cc1cc(C(N)=O)cc(-c2ccc(CNC3Cc4ccccc4C3)cc2)c1", "Class Label": "Not satisfied"}

Moving on to another compound below.
Exercise: Could you please tell me whether Ki recorded for Cc1cc(-c2cc(F)c(CNC3Cc4ccccc4C3)c(F)c2)cc(-c2ncn[nH]2)c1 is less than 0.3 µM?
Key: Not satisfied

---

# Measured Target: MOR (Homo sapiens)
# Sequence (P35372 whole entry): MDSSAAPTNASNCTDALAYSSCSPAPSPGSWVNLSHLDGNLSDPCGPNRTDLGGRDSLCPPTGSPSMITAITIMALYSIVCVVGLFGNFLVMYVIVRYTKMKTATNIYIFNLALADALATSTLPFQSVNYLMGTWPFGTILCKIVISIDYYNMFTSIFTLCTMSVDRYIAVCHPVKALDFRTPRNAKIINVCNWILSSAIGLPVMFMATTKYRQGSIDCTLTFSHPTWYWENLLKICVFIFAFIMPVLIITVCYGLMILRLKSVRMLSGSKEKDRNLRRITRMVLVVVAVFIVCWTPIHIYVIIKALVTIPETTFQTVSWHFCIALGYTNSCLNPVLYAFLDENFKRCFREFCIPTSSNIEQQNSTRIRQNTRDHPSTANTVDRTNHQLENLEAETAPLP
Parameter Measured: Ki (nM)
The response must be a number in nM with no trailing unit.

Example entries begin here.
{"Compound": "Cc1cc(C(N)=O)cc(-c2ccc(CNC3Cc4ccccc4C3)cc2)c1 [3A]", "Ki [nM]": 7.8}
{"Compound": "Cc1cc(-c2ccc(CNC3Cc4ccccc4C3)cc2)cc(-c2nc[nH]n2)c1 [6A]", "Ki [nM]": 4.2}
{"Compound": "Cc1cc(C(N)=O)cc(-c2ccc(CNC3Cc4ccccc4C3)c(F)c2)c1 [2A]", "Ki [nM]": 9.2}

Please find the next compound below.
Exercise: Look at this compound and give its reported Ki. Cc1cc(C(N)=O)cc(-c2cc(F)c(CNC3Cc4ccccc4C3)c(F)c2)c1 [1A]
Key: 8.3

---

# Measured Target: D1 (Homo sapiens, UniProt P21728)
# Sequence (P21728 whole entry): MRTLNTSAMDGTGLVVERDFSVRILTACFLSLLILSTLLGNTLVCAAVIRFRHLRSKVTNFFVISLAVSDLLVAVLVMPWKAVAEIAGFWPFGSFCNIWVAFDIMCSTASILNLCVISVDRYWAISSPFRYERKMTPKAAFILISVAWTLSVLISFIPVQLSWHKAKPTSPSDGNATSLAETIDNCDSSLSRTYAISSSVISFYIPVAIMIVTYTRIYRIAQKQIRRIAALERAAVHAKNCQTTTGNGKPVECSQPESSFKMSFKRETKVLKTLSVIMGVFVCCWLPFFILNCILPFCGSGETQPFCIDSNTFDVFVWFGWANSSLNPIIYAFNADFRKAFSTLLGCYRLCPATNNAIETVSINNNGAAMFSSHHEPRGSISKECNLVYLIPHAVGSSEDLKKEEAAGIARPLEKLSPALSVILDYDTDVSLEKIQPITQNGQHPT
# Experiment Notes: biochemical
Parameter Measured: Ki
# do not omit the unit; it follows the number

Use these answered entries as a reference point.
{"Molecule": "Cc1cc(C(N)=O)cc(-c2ccc(CNC3Cc4ccccc4C3)cc2)c1 [3A]", "Ki": "1320 nM"}
{"Molecule": "Cc1cc(C(N)=O)cc(-c2ccc(CNC3Cc4ccccc4C3)c(F)c2)c1 [2A]", "Ki": "1270 nM"}
{"Molecule": "Cc1cc(-c2ccc(CNC3Cc4ccccc4C3)c(F)c2)cc(-c2ncn[nH]2)c1 [5A]", "Ki": "1270 nM"}
{"Molecule": "Cc1cc(C(N)=O)cc(-c2cc(F)c(CNC3Cc4ccccc4C3)c(F)c2)c1 [1A]", "Ki": "998 nM"}

Exercise: Item under review: Cc1cc(-c2ccc(CNC3Cc4ccccc4C3)cc2)cc(-c2nc[nH]n2)c1 [6A] . Reported Ki?
Key: 716 nM

Exercise: Any idea what Ki was measured for Cc1cc(-c2cc(F)c(CNC3Cc4ccccc4C3)c(F)c2)cc(-c2ncn[nH]2)c1 [4A] ?
Key: 1870 nM

---

// endpoint pKi / system 5HT2B (Homo sapiens)
Reminder that pKi means the negative base-10 logarithm of the concentration expressed in mol/L.

Past entries and their recorded results:
{"Mol Smiles": "Cc1cc(-c2ccc(CNC3Cc4ccccc4C3)c(F)c2)cc(-c2ncn[nH]2)c1", "Parameter Measured": "pKi", "Assay Value": 6.02}
{"Mol Smiles": "Cc1cc(-c2ccc(CNC3Cc4ccccc4C3)cc2)cc(-c2nc[nH]n2)c1", "Parameter Measured": "pKi", "Assay Value": 6.08}

Now for a further molecule.
Exercise: Record request: pKi value, item Cc1cc(-c2cc(F)c(CNC3Cc4ccccc4C3)c(F)c2)cc(-c2ncn[nH]2)c1
Key: 6.32
